Tested on: purified yeast fungus (C. glabrata)
EXPERIMENT_SUMMARY: Staining of yeast-like fungi in spiked negative urine, flow cytometer UF-5000 SF channel, average fluorescence intensity of the yeast cluster
Assay type: cell-based
CONDITION_SUMMARY: Example 1; 10 g/L in first reagent, final 7.3 g/L; filtered if not dissolved; relative scale 0-255
MEASUREMENT_KIND: AVERAGE VALUE OF FLUORESCENT SIGNAL INTENSITY

[
  {
    "COMPOUND": "OCCOCCOc1ccccc1 [PHENYL DIGLYCOL, reference compound]",
    "STUDY_TARGET": "purified yeast fungus (C. glabrata)",
    "ASSAY_RESULT": 165.0
  },
  {
    "COMPOUND": "CCCCCCCCC(C)O (stereo not shown) [2-DECANOL, reference compound]",
    "STUDY_TARGET": "purified yeast fungus (C. glabrata)",
    "ASSAY_RESULT": 106.0
  },
  {
    "COMPOUND": "CCCCC(O)CO (stereo not shown) [1,2-HEXANEDIOL, reference compound]",
    "STUDY_TARGET": "purified yeast fungus (C. glabrata)",
    "ASSAY_RESULT": 107.7
  },
  {
    "COMPOUND": "OCCCCCCCCO [1,8-OCTANEDIOL, reference compound]",
    "STUDY_TARGET": "purified yeast fungus (C. glabrata)",
    "ASSAY_RESULT": 120.5
  },
  {
    "COMPOUND": "CCCCCCC(C)O (stereo not shown)",
    "STUDY_TARGET": "purified yeast fungus (C. glabrata)",
    "ASSAY_RESULT": 240.6
  },
  {
    "COMPOUND": "CCCCCC(C)O (stereo not shown)",
    "STUDY_TARGET": "purified yeast fungus (C. glabrata)",
    "ASSAY_RESULT": 250.1
  },
  {
    "COMPOUND": "OCCCCC(O)CO (stereo not shown) [1,2,6-HEXANETRIOL, reference compound]",
    "STUDY_TARGET": "purified yeast fungus (C. glabrata)",
    "ASSAY_RESULT": 80.5
  }
]

Values were extracted from patent US20250305931A1.
